The measured values listed here are drawn from PubChem BioAssay.

Test: growth inhibitors of H69AR lung tumor, primary screen, human, duplicate replicates (AID 580);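 further: 100% = mean luminescence of untreated wells and 0% = no signal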
Details: H69AR lung tumor cells viability, ATP luminescence, 72 h; at 10 µM; stronger effect = lower value
Recorded viability values for a group of compounds are listed next.
PARAMETER_MEASURED: viability (%)

{"COMPOUND": "O=C(NCc1n[nH]c(=S)n1-c1ccc(F)cc1)c1ccco1", "UNIT_LABEL": "%", "READOUT_VALUE": 96.2}
{"COMPOUND": "N#CCc1nc2c3c4c(sc3ncn2n1)CCCC4", "UNIT_LABEL": "%", "READOUT_VALUE": 86.4}
{"COMPOUND": "CN(C)c1ccnc(NCc2ccccc2)c1C#N", "UNIT_LABEL": "%", "READOUT_VALUE": 85.8}
{"COMPOUND": "Cc1ccc(S(=O)(=O)N2CCN(C(=O)CSc3nc4ccccc4c(=O)[nH]3)CC2)c(C)c1", "UNIT_LABEL": "%", "READOUT_VALUE": 85.1}
{"COMPOUND": "Cc1nc2c(-c3ccccc3)c(C)[nH]n2c(=O)c1Cl", "UNIT_LABEL": "%", "READOUT_VALUE": 77.5}
{"COMPOUND": "CCCc1cc(=O)n2[nH]cnc2n1", "UNIT_LABEL": "%", "READOUT_VALUE": 100}
{"COMPOUND": "Cc1ccc(F)cc1NC(=O)c1cccc2nccnc12", "UNIT_LABEL": "%", "READOUT_VALUE": 91.1}
{"COMPOUND": "Cc1c(Cl)cccc1NC(=O)CCN1CCCCCC1", "UNIT_LABEL": "%", "READOUT_VALUE": 88.3}
{"COMPOUND": "c1ccc(Cn2ncc3c2ncn2c(-c4ccncc4)nnc32)cc1", "UNIT_LABEL": "%", "READOUT_VALUE": 95}
{"COMPOUND": "C/C=C(\\C)c1nnc(NC(=O)OCC)s1", "UNIT_LABEL": "%", "READOUT_VALUE": 96.4}
{"COMPOUND": "CC(C)(C)NC(=O)CN(C(=O)C1CSC(=O)C1)c1ccc2c(c1)OCCO2 (stereo unspecified)", "UNIT_LABEL": "%", "READOUT_VALUE": 91.5}
{"COMPOUND": "CN(C)CC(=O)N1c2ccccc2CCc2ccc(NC(=O)c3ccc(N)cc3)cc21", "UNIT_LABEL": "%", "READOUT_VALUE": 83.8}
{"COMPOUND": "CCC(=O)Nc1cc(C)c(NC(=O)C23CC4CC(CC(C4)C2)C3)cn1", "UNIT_LABEL": "%", "READOUT_VALUE": 107}
{"COMPOUND": "CCC(c1c(C)n(C)n(-c2ccccc2)c1=O)c1c(C)n(C)n(-c2ccccc2)c1=O", "UNIT_LABEL": "%", "READOUT_VALUE": 100}
{"COMPOUND": "Cc1c(NC(=O)CCc2ccc(S(=O)(=O)N3CCOCC3)cc2)c(=O)n(-c2ccccc2)n1C", "UNIT_LABEL": "%", "READOUT_VALUE": 100}
{"COMPOUND": "CCc1oc2ccccc2c1C(=O)c1cc(Br)c(O)c(Br)c1", "UNIT_LABEL": "%", "READOUT_VALUE": 79}

---

Experiment: reversal of MRP1-mediated doxorubicin resistance, pilot screen, H69AR cells, doxorubicin co-treatment (AID 601)
Conditions: H69AR cells, CellTiter-Glo, 72 h; compound alone cytotoxicity; at 10 µM
viability: recorded values

{"MOLECULE": "CC1CCCN(c2ccc(C(=O)NCc3cccs3)cn2)C1 (stereo not given)", "viability, %": 82.8}
{"MOLECULE": "COC(=O)CCn1nnc(-c2ccc(C)cc2)n1", "viability, %": 94.1}
{"MOLECULE": "N=c1nc(N2CCCCC2)cc(N)n1O", "viability, %": 99.8}
{"MOLECULE": "c1ccc(OCCOc2ncnc3sccc23)cc1", "viability, %": 98.7}
{"MOLECULE": "CCCCCn1c(CN(C)Cc2ccccc2)nc2c1c(=O)n(C)c(=O)n2C", "viability, %": 79.8}
{"MOLECULE": "CN(Cc1ccccc1)C(=O)c1cc(-c2ccc(Br)cc2)on1", "viability, %": 103}
{"MOLECULE": "O=C(Nc1nnc(CCN2CCCCC2)s1)C1CCCCC1", "viability, %": 91.9}
{"MOLECULE": "COc1ccc(OCC(=O)N2CCN(C(=O)COc3ccc(Br)cc3)CC2)cc1", "viability, %": 47.6}
{"MOLECULE": "O=C(O)CCn1[nH]c(=O)ccc1=O", "viability, %": 97.3}
{"MOLECULE": "CNCCCN1c2ccccc2CCc2ccccc21", "viability, %": 90.4}
{"MOLECULE": "COc1ccc(NC(=O)CSc2nc(C)cc(C(F)(F)F)n2)cc1", "viability, %": 87.4}
{"MOLECULE": "CCOc1cc(C2Nc3ccccc3C(=O)N2c2ccccc2OC)ccc1O (stereo not given)", "viability, %": 95}
{"MOLECULE": "COc1ccc2cc(C#N)c(N3CCN(Cc4nnnn4CCC(C)C)CC3)nc2c1", "viability, %": 79.4}
{"MOLECULE": "CCc1ccc(NC(=O)c2cccnc2)cc1", "viability, %": 105}
{"MOLECULE": "CNCCCC1c2ccccc2C=Cc2ccccc21", "viability, %": 92}
{"MOLECULE": "CC1Cc2ccccc2N1S(=O)(=O)c1ccc2c(c1)n(C)c(=O)c(=O)n2C (stereo not given)", "viability, %": 83.7}
{"MOLECULE": "Cc1ccc2cc(C(c3nnnn3C3CCCC3)N3CCN(c4ccc(F)cc4)CC3)c(=O)[nH]c2c1 (stereo not given)", "viability, %": 67.6}
{"MOLECULE": "Cn1cccc1-c1nc2ccc(NC(=O)c3ccco3)cc2[nH]1", "viability, %": 77}
{"MOLECULE": "Cc1noc(C)c1C(=O)N1CCN(C(=O)c2sc3cc(Cl)ccc3c2Cl)CC1", "viability, %": 89}
{"MOLECULE": "O=C(Cn1ncc2c(=O)oc3ccccc3c21)Nc1nc2ccccc2s1", "viability, %": 102}
{"MOLECULE": "COC(=O)[C@H](C)NC(=O)Nc1cccc(C(F)(F)F)c1", "viability, %": 89.9}
{"MOLECULE": "Cc1cc(=O)oc2ccc(OCC(=O)N(Cc3ccc(F)cc3)Cc3ccco3)cc12", "viability, %": 72}
{"MOLECULE": "Cc1cc(C(C)(C)C)c(O)c(C)c1CC1=NCCN1", "viability, %": 92.5}
{"MOLECULE": "O=C(c1ccccc1)c1ccc(N2CCNCC2)cc1", "viability, %": 84.5}
{"MOLECULE": "CC(C)(C)c1nnc(NC(=O)C2CCN(c3ncccn3)CC2)s1", "viability, %": 101}
{"MOLECULE": "Cc1nnc(SCC(=O)NC(C)(C)C)n1CCc1ccccc1", "viability, %": 95.6}
{"MOLECULE": "Cc1noc(NS(=O)(=O)c2ccc(NC(=O)CCC3CCCC3)cc2)c1C", "viability, %": 94}
{"MOLECULE": "COC(=O)c1nnn(-c2ccccc2)c1N", "viability, %": 103}
{"MOLECULE": "CCOC(=O)c1c(C(F)(F)C(F)(F)C(F)(F)C(F)(F)F)n[nH]c1C", "viability, %": 76.8}
{"MOLECULE": "CN(CC(=O)Nc1ccc(F)c(Cl)c1)S(=O)(=O)c1cccc2nsnc12", "viability, %": 90.1}

---

Assay: growth suppression of yeast trafficking mutant, preliminary HTS, modulators of trafficking downstream of Golgi apparatus project, 1536-format plate, OD 615 nm (AID 637)
Conditions: yeast transport mutant growth, absorbance 615 nm, 18 h; stronger effect = higher value

{"COMPOUND": "O=C1CC(c2ccco2)CC(O)=C1C=NCC1NCCc2ccccc21 (stereo not given)", "UNIT_LABEL": "%", "inhibition": 7.14}
{"COMPOUND": "COc1cccc(OCCn2ccnc2)c1", "UNIT_LABEL": "%", "inhibition": -9.21}
{"COMPOUND": "CCCCN1CN(S(=O)(=O)c2cccs2)c2nc3ccccc3nc21", "UNIT_LABEL": "%", "inhibition": -4.18}
{"COMPOUND": "N=c1ncn(CC(O)CN2CCOCC2)c2nc(N3CCOCC3)[nH]c12 (stereo not given)", "UNIT_LABEL": "%", "inhibition": -1.9}
{"COMPOUND": "CS(=O)(=O)N(CC(=O)NCCSCc1cccc(Cl)c1)c1ccc2c(c1)OCO2", "UNIT_LABEL": "%", "inhibition": -2.62}
{"COMPOUND": "CC(N)C12CC3CC(C1)CC(C(C)N)(C3)C2 (stereo not given)", "UNIT_LABEL": "%", "inhibition": -4.18}
{"COMPOUND": "Cc1ccc(N2CCN(c3ccc(C)cc3)C(CC(=O)O)C2=O)cc1 (stereo not given)", "UNIT_LABEL": "%", "inhibition": -3.23}
{"COMPOUND": "CCc1nc(SCc2cc(Cl)ccc2OC)n[nH]1", "UNIT_LABEL": "%", "inhibition": -6.55}
{"COMPOUND": "CC(=O)N1CCc2cc(S(=O)(=O)CCC(=O)Nc3cccc(F)c3)ccc21", "UNIT_LABEL": "%", "inhibition": -1.5}
{"COMPOUND": "COC(=O)c1ccc2c(c1)nc(C)n2CCO", "UNIT_LABEL": "%", "inhibition": -2}
{"COMPOUND": "CC(C)(C)NC(=O)CN(C(=O)CS(=O)CC(=O)Nc1ccc(F)cc1)c1ccc(Cl)cc1 (stereo not given)", "UNIT_LABEL": "%", "inhibition": 21.9}
{"COMPOUND": "CC1(C)NC(=O)N(CC(O)COc2ccc(-c3ccccc3)cc2)C1=O (stereo not given)", "UNIT_LABEL": "%", "inhibition": -4.83}
{"COMPOUND": "Cc1ccc2c(c1C)NC(=O)C2(O)CC(=O)c1ccc2c(c1)OCO2 (stereo not given)", "UNIT_LABEL": "%", "inhibition": 2.9}
{"COMPOUND": "COc1ccccc1-n1c(SCC(=O)Nc2ccc3c(c2)OCO3)nc2c(c1=O)SCC2", "UNIT_LABEL": "%", "inhibition": 23.5}
{"COMPOUND": "O=C(NCc1ccco1)Nc1ccc2nsnc2c1", "UNIT_LABEL": "%", "inhibition": -6.45}
{"COMPOUND": "Cc1cc(-c2ccccc2)nnc1NCCN1CCOCC1", "UNIT_LABEL": "%", "inhibition": -3.17}
{"COMPOUND": "Cc1cc(C(=O)N2CCN(C(c3ccccc3)c3ccccc3)CC2)no1", "UNIT_LABEL": "%", "inhibition": 0.16}
{"COMPOUND": "Nc1nc(-c2ccc(Cl)cc2)nn1C(=O)c1cccnc1", "UNIT_LABEL": "%", "inhibition": 4.29}
{"COMPOUND": "CC(=O)c1ccc(N2CCN(C(=O)c3cc(C)on3)CC2)cc1", "UNIT_LABEL": "%", "inhibition": -3.82}
{"COMPOUND": "CCC1CCCCN1C(=O)C1CC(c2cc(Cl)c(OC)cc2OC)=NO1 (stereo not given)", "UNIT_LABEL": "%", "inhibition": -3.77}
{"COMPOUND": "Cc1ccc(C(C(=O)NC2CCCCC2)N(C(=O)c2csnn2)C2CCCC2)o1 (stereo not given)", "UNIT_LABEL": "%", "inhibition": -2.46}
{"COMPOUND": "CCC1Oc2ccc(C)cc2N(CC(=O)NCCCN2CCCCC2CC)C1=O (stereo not given)", "UNIT_LABEL": "%", "inhibition": -0.66}
{"COMPOUND": "COC(=O)CCn1nnc(-c2ccc(C)cc2)n1", "UNIT_LABEL": "%", "inhibition": -2.91}
{"COMPOUND": "c1ccc(-c2n[nH]c3ccccc23)cc1", "UNIT_LABEL": "%", "inhibition": 2.1}
{"COMPOUND": "Cc1cccc(NC(=O)CC2NC3CCCCC3NC2=O)c1 (stereo not given)", "UNIT_LABEL": "%", "inhibition": -1.17}
{"COMPOUND": "Cc1nc2ccccn2c(=O)c1CCN1CCC(C(=O)c2ccc(F)cc2)CC1", "UNIT_LABEL": "%", "inhibition": 17.2}
{"COMPOUND": "NC(=O)OCC(COC(N)=O)c1ccccc1", "UNIT_LABEL": "%", "inhibition": 2}
{"COMPOUND": "CCCCC(=O)Nc1c(O)c2ccccc2[nH]c1=O", "UNIT_LABEL": "%", "inhibition": -8.69}
{"COMPOUND": "Cc1nc(C)c(C(=O)OCC(=O)N2CCN(c3ccccc3)CC2)s1", "UNIT_LABEL": "%", "inhibition": 4.29}
{"COMPOUND": "COc1cc(C)c(Br)cc1S(=O)(=O)N1CCOCC1", "UNIT_LABEL": "%", "inhibition": -0.18}
{"COMPOUND": "Cc1ccc(-n2nc3cc(Cl)c(NC(=O)c4ccco4)cc3n2)cc1", "UNIT_LABEL": "%", "inhibition": 2.7}
{"COMPOUND": "O=C(c1cc2nc(-c3ccco3)cc(C(F)(F)F)n2n1)N1CCN(c2ccccn2)CC1", "UNIT_LABEL": "%", "inhibition": 0.18}
{"COMPOUND": "Cc1ccc(Cn2nnnc2CN2CCC(O)(c3ccccc3F)CC2)cc1", "UNIT_LABEL": "%", "inhibition": -0.65}
{"COMPOUND": "Cc1occc1-c1nc(-c2ccncc2)no1", "UNIT_LABEL": "%", "inhibition": -8.87}
{"COMPOUND": "CC(C)(C)n1nnnc1C(c1ccccc1)N1CCc2ccccc2C1 (stereo not given)", "UNIT_LABEL": "%", "inhibition": -2.7}
{"COMPOUND": "COc1ccc(-c2cc3c(=O)n(CC(=O)NC4CCN(Cc5ccccc5)CC4)ncn3n2)cc1", "UNIT_LABEL": "%", "inhibition": -0.83}
{"COMPOUND": "Cc1ccc2[nH]c(=O)c(CN(CCCO)S(=O)(=O)c3c(C)ccc4nsnc34)cc2c1", "UNIT_LABEL": "%", "inhibition": -4.44}
{"COMPOUND": "CC(=O)NC1CC2CCCC(C1)N2CC(=O)Nc1ccccc1 (stereo not given)", "UNIT_LABEL": "%", "inhibition": -6.98}
{"COMPOUND": "CCOC(=O)c1c(N)nn(C(=O)C(C)C)c1-c1ccccc1", "UNIT_LABEL": "%", "inhibition": -9.34}
{"COMPOUND": "CC(C)n1c(NCc2c[nH]c3ccccc23)nc2ccccc21", "UNIT_LABEL": "%", "inhibition": -5.16}
